Items are presented alongside their recorded TGI.
test system: NCI-H226 lung; assay: NCI tumour cell line growth inhibition, 48 h
READOUT_LABEL: TGI

C#CCCCCC#Cc1ccccc1C(=O)OC ... > 100 µM
CC(=O)OCC(C)C1=C(O)C(=O)C2(C)C/C=C(/C)CC/C=C(\C)CCC(O)C(C)CCC12 (centres undefined) ... 33.5 µM
O=C1C(Cl)=C(N2CCN(C3=C(Cl)C(=O)c4ccccc4C3=O)CC2)C(=O)c2ccccc21 ... 11.8 µM
N#CC1(Cc2ccc(N)cc2)c2ccccc2C=CN1C(=O)c1ccccc1 (centres undefined) ... > 100 µM

---

tested on: MOLT-4 leukemia; test: NCI tumour cell line growth inhibition, 48 h
READOUT_LABEL: TGI

CCCCN1C(=O)CC2[C@@H]3CCc4cc(OC(C)=O)ccc4C3CC[C@]2(C)C1=O (some centres not stated) ... > 10 µM
C=CCN1C(=O)/C(=C/c2ccccc2)N=C1SC1OC(COC(=O)c2ccccc2)C(OC(=O)c2ccccc2)C1OC(=O)c1ccccc1 (configuration not stated) ... > 100 µM
COC1C(CN[N+](=O)CC2OC3OC(C)(C)OC3C2OC)OC2OC(C)(C)OC21 (configuration not stated) ... > 100 µM
Cc1nnc(Nc2ccccc2)o1 ... > 100 µM
C/C(CCOC1CCCCO1)=C(\C)[Si](C)(C)C (configuration not stated) ... > 100 µM
COc1cccc(-c2cc(=O)c3ccccc3o2)c1N ... > 100 µM
CN(CCC#N)c1ccc(/C=C2\SC(=S)NC2=O)cc1 ... > 100 µM
CN1C(=O)C2C(=O)N(Cc3ccccc3)CC(=O)N2c2cccnc21 (configuration not stated) ... > 100 µM
Cc1ccc(-c2c3c([nH]c(=O)c2C#N)-c2cc(F)ccc2OC3)cc1 ... > 100 µM
OCCCCCNc1c2ccccc2nc2ccccc12 ... > 63.3 µM
N#CC1(Cc2ccc(N)cc2)c2ccccc2C=CN1C(=O)c1ccccc1 (configuration not stated) ... > 100 µM
COc1cc2c(cc1OC)C1=Cc3cc(OC)c(OC)cc3C(C)N1C=C2 (configuration not stated) ... > 100 µM

---

system: SK-MEL-28 melanoma; assay: NCI tumour cell line growth inhibition, 48 h
READOUT_LABEL: TGI

CC1(C)OCC(COC(=O)C=[N+]=[N-])O1 (stereo unspecified) ... > 100 µM
COC(=O)C1(C(=O)OC)CC2=C(S(=O)(=O)c3ccccc3)C[C@H](S(=O)(=O)c3ccccc3)[C@H]2C1 ... > 100 µM
CC(C)(N=NC(C)(C)C(=O)NCCO)C(=O)NCCO ... > 100 µM
C=C(C)C12CC(COC(=O)c3ccccc3)C34OC5(OC1C3C1OC1(CO)C(O)C1(O)C(OC(=O)c3ccccc3)C(C)C(C(C)CCCCCCC5O)C14)O2 (stereo unspecified) ... > 100 µM
COCOC1/C=C/CCCCC2=C(C)C=C(C1)O2 (stereo unspecified) ... > 100 µM
COc1cc(/C=C2/C(=O)N(C(=O)c3ccccc3O)N=C2C)cc(OC)c1OC ... > 100 µM

---

Each record here notes measured TGI.
test system: SR leukemia; experiment: NCI tumour cell line growth inhibition, 48 h
READOUT_LABEL: TGI

OCc1ccc2[n+](c1)CCC1c3ccccc3NC21 (stereo not given) ... > 300 µM
Cc1c(C(=O)N/N=C/c2ccc(Cl)cc2)nnn1-c1ccnc2c(C(F)(F)F)cccc12 ... 12.3 µM
COc1ccccc1Nc1nc(N)nc(N)c1N=O ... > 100 µM
OCCCCCNc1c2ccccc2nc2ccccc12 ... > 23.2 µM
O=C(O)c1cc2c(cc1CC(Cc1ccc3c(c1)CCC3)C(=O)O)CCC2 (stereo not given) ... > 100 µM
CN(C)/N=N/c1nc2c(c(=O)n(C)c(=O)n2C)n1C ... > 100 µM
CC(O[Si](c1ccccc1)(c1ccccc1)C(C)(C)C)[C@H](NC(=O)OC(C)(C)C)C(=O)O[Si](c1ccccc1)(c1ccccc1)C(C)(C)C (stereo not given in full) ... 82 µM
O=C1c2c(c3c4ccccc4n(CCCCCCBr)c3c3[nH]c4ccccc4c23)C(=O)N1O ... 4.71 µM
C=CCN1C(=O)/C(=C/c2ccccc2)N=C1SC1OC(COC(=O)c2ccccc2)C(OC(=O)c2ccccc2)C1OC(=O)c1ccccc1 (stereo not given) ... > 100 µM
Cc1ccc(-c2c3c([nH]c(=O)c2C#N)-c2cc(F)ccc2OC3)cc1 ... > 100 µM
